EXPERIMENTAL_DETAILS: The pharmacokinetics of Telithromycin evaluated after administration of single 800-mg doses to healthy adult subjects.
Format: ADME, organism-based
Parameters: dose 800 mg, route oral
CONDITION_PARAMETERS: human, in vivo, po, 800 mg; dosed compound id 4, dosed compound name TELITHROMYCIN, gender adult male and female, regimen Single dose, tissue Plasma; read-out: AUC(0-24)
ASSAY_ENDPOINT: AUC (ng·h/mL)
Write down the numeric answer in ng·h/mL and omit the unit.

Reported AUC for CC[C@H]1OC(=O)[C@H](C)C(=O)[C@H](C)[C@@H](O[C@@H]2O[C@H](C)C[C@H](N(C)C)[C@H]2O)[C@](C)(OC)C[C@@H](C)C(=O)[C@H](C)[C@H]2N(CCCCn3cnc(-c4cccnc4)c3)C(=O)O[C@]12C [TELITHROMYCIN] was 8250

====

EXPERIMENTAL_DETAILS: The pharmacokinetics of Telithromycin evaluated after administration of Ketek to subjects.
Type: ADME, organism-based
CONDITION_PARAMETERS: human, in vivo; dosed compound id 4, dosed compound name TELITHROMYCIN, route oral, tissue Feces; read-out: Excretion
ASSAY_ENDPOINT: dose excreted (%)
Write down the numeric answer in % and omit the unit.

Reported dose excreted for CC[C@H]1OC(=O)[C@H](C)C(=O)[C@H](C)[C@@H](O[C@@H]2O[C@H](C)C[C@H](N(C)C)[C@H]2O)[C@](C)(OC)C[C@@H](C)C(=O)[C@H](C)[C@H]2N(CCCCn3cnc(-c4cccnc4)c3)C(=O)O[C@]12C was 7

====

EXPERIMENTAL_DETAILS: The pharmacokinetics of Telithromycin evaluated after administration of single 800-mg doses to healthy adult subjects.
Assay type: ADME, organism-based
Design: dose 800 mg, route oral
CONDITION_PARAMETERS: human, in vivo; dose 800 mg, dosed compound id 4, dosed compound name TELITHROMYCIN, gender adult male and female, regimen Single dose, route oral, tissue Plasma
ASSAY_ENDPOINT: Tmax

Reported Tmax for CC[C@H]1OC(=O)[C@H](C)C(=O)[C@H](C)[C@@H](O[C@@H]2O[C@H](C)C[C@H](N(C)C)[C@H]2O)[C@](C)(OC)C[C@@H](C)C(=O)[C@H](C)[C@H]2N(CCCCn3cnc(-c4cccnc4)c3)C(=O)O[C@]12C was 1 h

====

EXPERIMENTAL_DETAILS: The pharmacokinetics of Telithromycin evaluated after administration of multiple 800-mg doses to healthy adult subjects.
Type: ADME, organism-based
Parameters: dose 800 mg, route oral
CONDITION_PARAMETERS: human, in vivo; dose 800 mg, dosed compound id 4, dosed compound name TELITHROMYCIN, gender adult male and female, regimen Multiple dose, route oral, tissue Plasma
ASSAY_ENDPOINT: half-life (h)
Write down the numeric answer in h and omit the unit.

Reported half-life for CC[C@H]1OC(=O)[C@H](C)C(=O)[C@H](C)[C@@H](O[C@@H]2O[C@H](C)C[C@H](N(C)C)[C@H]2O)[C@](C)(OC)C[C@@H](C)C(=O)[C@H](C)[C@H]2N(CCCCn3cnc(-c4cccnc4)c3)C(=O)O[C@]12C was 9.81

====

EXPERIMENTAL_DETAILS: The pharmacokinetics of Telithromycin evaluated after administration of multiple 800-mg doses to healthy adult subjects.
Assay type: ADME, organism-based
Parameters: dose 800 mg, route oral
CONDITION_PARAMETERS: human, in vivo, po, 800 mg; dosed compound id 4, dosed compound name TELITHROMYCIN, gender adult male and female, regimen Multiple dose, tissue Plasma
ASSAY_ENDPOINT: Cmax (ng/mL)
Write down the numeric answer in ng/mL and omit the unit.

Reported Cmax for CC[C@H]1OC(=O)[C@H](C)C(=O)[C@H](C)[C@@H](O[C@@H]2O[C@H](C)C[C@H](N(C)C)[C@H]2O)[C@](C)(OC)C[C@@H](C)C(=O)[C@H](C)[C@H]2N(CCCCn3cnc(-c4cccnc4)c3)C(=O)O[C@]12C was 2270
